Data origin: patent US11584746B2

pEC50 listing for selected molecules.
- Test system: EGFR T790M/L858R Ba/F3 cell line
- measurement_description: Ba/F3 cell proliferation (MTS assay), EGFR T790M/L858R
- Assay type: cell-based, murine
- settings: read-out: Ba/F3 cellular activity (EC50) T790M/L858R + Cetuximab (1 μg/mL); presence of 1 μg/mL cetuximab
pEC50: −log10 of the molar value.
measure: pEC50

O=C1c2cc(-c3ccc(N4CCNCC4)cc3)ccc2Nc2ncc(F)cc2N1Cc1ccccc1 :: ≤ 6.12
O=C1c2cc(-c3ccc(N4CCNCC4)cc3)ccc2Nc2ccc(F)cc2N1c1ccccc1 :: ≤ 6.12
O=C1c2cc(Br)ccc2Nc2ccc(F)cc2N1Cc1ccccc1 :: 6.30 to 6.60
O=C1c2cc(-c3ccc(-c4cn[nH]c4)cc3)ccc2Nc2ccc(F)cc2N1Cc1ccccc1 :: 6.30 to 6.60
O=C1c2cc(-c3ccc(N4CCNCC4)cc3)ccc2Nc2ccc(F)cc2N1Cc1cccc2cc[nH]c12 :: > 6.60
O=C1c2cc(-c3ccc(N4CCNCC4)cc3)ccc2Nc2ccc(F)cc2N1Cc1cccnc1 :: ≤ 6.12
O=C1c2cc(-c3ccc4[nH]ccc4c3)ccc2Nc2ccc(F)cc2N1c1ccccc1 :: ≤ 6.12
CN1CCN(c2ccc(Oc3ccc4c(c3)C(=O)N(Cc3ccccc3)c3cc(F)ccc3N4)cc2)CC1 :: 6.30 to 6.60
